test-details: Conversion of prodrug to parent in in vitro biorelevant gastrointestinal tract media
Type: in vitro ADME
experimental-conditions: FaSSIF + pancreatin, 37° C., 3 h
Some compounds, each annotated with its measured Conversion in FaSSIF + Pancreatin, time.

Solved entries:
query-smiles | result
Cc1cc(Nc2cc(C(F)F)ccn2)nc(-c2ccc([C@](C)(O)[C@H]3CC[C@H](C(=O)OC[N+]4(C)CCOCC4)CC3)nc2)c1.[I-] | 45%, 3 h
Cc1cc(Nc2cc(C(F)F)ccn2)nc(-c2ccc([C@](C)(O)[C@H]3CC[C@H](C(=O)OCOC(=O)OCCCCCCN(C)C)CC3)nc2)c1 | 20%, 3 h
Cc1cc(Nc2cc(C(F)F)ccn2)nc(-c2ccc([C@](C)(O)[C@H]3CC[C@H](C(=O)O[C@H]4CC[C@H](N)CC4)CC3)nc2)c1 | 100%, 3 h
CCOCCOCCOC(=O)OCOC(=O)[C@H]1CC[C@H]([C@@](C)(O)c2ccc(-c3cc(C)cc(Nc4cc(C(F)F)ccn4)n3)cn2)CC1 | 100%, 3 h
CNCCCOC(=O)[C@H]1CC[C@H]([C@@](C)(O)c2ccc(-c3cc(C)cc(Nc4cc(C(F)F)ccn4)n3)cn2)CC1 | 100%, 3 h
Cc1cc(Nc2cc(C(F)F)ccn2)nc(-c2ccc([C@](C)(O)[C@H]3CC[C@H](C(=O)OCCOP(=O)(O)O)CC3)nc2)c1 | 20%, 3 h
Cc1cc(Nc2cc(C(F)F)ccn2)nc(-c2ccc([C@](C)(O)[C@H]3CC[C@H](C(=O)OCOC(=O)OCC4CCOCC4)CC3)nc2)c1 | 65%, 3 h

Lab note: next compound to report on.
[in] Look up Conversion in FaSSIF + Pancreatin, time of CCOCCOC(=O)OCOC(=O)[C@H]1CC[C@H]([C@@](C)(O)c2ccc(-c3cc(C)cc(Nc4cc(C(F)F)ccn4)n3)cn2)CC1 and report it.
[out] 95%, 3 h

----------
measured-target: recombinant human GST-Syk (Homo sapiens)
Construct: purchased Carna Biosciences 08-176
test-details: Homogeneous Time-Resolved Fluorescence (HTRF) assay for the recombinant human Syk enzyme
Type: biochemical
experimental-conditions: recombinant human GST-Syk 5 pM, ATP 25 μM, read-out: IC50
readout-name: IC50 (nM)
Answer format: numeric, nM implied, no suffix.

Solved entries:
molecule | readout-name | result-units | number
Cc1cc(Nc2cc(C(F)F)ccn2)nc(-c2ccc([C@](C)(O)[C@H]3CC[C@H](C(=O)OCOC(=O)OCC[S+](C)[O-])CC3)nc2)c1 (single isomer, unassigned) [Example 7-5] | IC50 | nM | 0.6
CCC[N+](CCC)(CCC)COC(=O)[C@H]1CC[C@H]([C@@](C)(O)c2ccc(-c3cc(C)cc(Nc4cc(C(F)F)ccn4)n3)cn2)CC1 [Example 5-9] | IC50 | nM | 1
Cc1cc(Nc2cc(C(F)F)ccn2)nc(-c2ccc([C@](C)(O)[C@H]3CC[C@H](C(=O)OCOC(=O)CC(C)(C)O)CC3)nc2)c1 [Example 3-4] | IC50 | nM | 1.8

[in] Give recombinant human GST-Syk (Homo sapiens) IC50 for the following molecule: CO[C@H]1O[C@H](COC(=O)[C@H]2CC[C@H]([C@@](C)(O)c3ccc(-c4cc(C)cc(Nc5cc(C(F)F)ccn5)n4)cn3)CC2)[C@@H](O)[C@H](O)[C@H]1O [Example 1-26]
[out] 4.1

[in] Give recombinant human GST-Syk (Homo sapiens) IC50 for the following molecule: Cc1cc(Nc2cc(C(F)F)ccn2)nc(-c2ccc([C@](C)(O)[C@H]3CC[C@H](C(=O)OC[N+](C)(C)Cc4ccccc4)CC3)nc2)c1 [Example 5-20]
[out] 0.8

[in] Give recombinant human GST-Syk (Homo sapiens) IC50 for the following molecule: Cc1cc(Nc2cc(C(F)F)ccn2)nc(-c2ccc([C@](C)(O)[C@H]3CC[C@H](C(=O)OCC[S@+](C)[O-])CC3)nc2)c1 (single isomer, unassigned) [Example 7-1b]
[out] 3.3
